meta.source: PubChem BioAssay (NCI)

# experimentalProtocol: NCI Yeast Anticancer Drug Screen. Data for the cln2 rad14 strain (AID 165);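 also: 0% = growth equal to vehicle treated cultures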
# measurementConditions: S. cerevisiae cln2 rad14 strain, at 50.0 µM, hits give high values
Compounds without any hit were thinned out: in the full panel of roughly 79,000, 15% have a hit.
parameter: growth inhibition (%)
Quick reminder: number only, in %, skip the unit.

The reported value for O=c1[nH]cc(O)c(=O)[nH]1 in terms of growth inhibition is 12.7

The reported value for CCOC(=O)c1c2ccc(/C=C/c3ccccc3)ccc-2c(C(=O)OCC)c1N in terms of growth inhibition is 10.6

The reported value for COc1cc(Br)cc(OC)c1Oc1cc(OC)c(OC)c(OC)c1Br in terms of growth inhibition is 2.4

The reported value for CC(C(=O)O)C(NC(=O)c1ccccc1)C(=O)O (stereo unspecified) in terms of growth inhibition is 16

The reported value for CN(C)CCCCCCNCCC#N in terms of growth inhibition is -8.85

The reported value for COC(OC)C1(CCc2ccccc2)NC(=O)N(C)C1=O (stereo unspecified) in terms of growth inhibition is -19.9

The reported value for CCCCCCCCCCCC(=O)NC(=S)Nc1cc(OC)ccc1OC in terms of growth inhibition is -47.3

The reported value for Cn1nc(-c2ccccc2)c(-c2cc(-c3ccccc3)n[nH]2)c(N)c1=O in terms of growth inhibition is 7.9

The reported value for Cc1nc([N+](=O)[O-])cn1CC(=N)N in terms of growth inhibition is -5.15

The reported value for S=C(S)NC1CCN(Cc2ccccc2)CC1 in terms of growth inhibition is 48

The reported value for COc1cc([N+](=O)[O-])ccc1NC(=O)C(Br)C(Br)C(=O)O (stereo unspecified) in terms of growth inhibition is -28.1

The reported value for CCc1nnc(CC)n1N1C(=O)CCC1=O in terms of growth inhibition is 11.1

The reported value for Cc1cc(-c2cccc3ccccc23)c(C#N)c(=S)n1C1OC(CO)C(O)C(O)C1O (stereo unspecified) in terms of growth inhibition is 9.5

The reported value for COc1ccc(CCN2C(=O)C(=O)N(c3ccc([N+](=O)[O-])cc3)C2=O)cc1OC in terms of growth inhibition is 8.6

The reported value for CCOC(=O)C1CNCCC1=O (stereo unspecified) in terms of growth inhibition is -1.4

The reported value for CCC(SC(CC)(CC(C)C)C(N)=O)C(N)=O (stereo unspecified) in terms of growth inhibition is -53
